I'd be grateful if you could share measured phosphorylation enrichment for these entries.
molecular target: FGFR3 (UniProt P22607); experiment: phosphorylation enrichment, bacterial display (enrichment ratio); higher = better substrate or ligand; peptides without Tyr show the background;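 further: 11-residue human phosphosite peptides and single-mutation variants displayed on the E. coli surface, counted by deep sequencing, each peptide's frequency after selection divided by its frequency in the unselected input library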;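 further: frequency after pTyr selection over input frequency; kinase dosed for 20-30% of maximal phosphorylation in three min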
Sequence (P22607 whole entry, looked up): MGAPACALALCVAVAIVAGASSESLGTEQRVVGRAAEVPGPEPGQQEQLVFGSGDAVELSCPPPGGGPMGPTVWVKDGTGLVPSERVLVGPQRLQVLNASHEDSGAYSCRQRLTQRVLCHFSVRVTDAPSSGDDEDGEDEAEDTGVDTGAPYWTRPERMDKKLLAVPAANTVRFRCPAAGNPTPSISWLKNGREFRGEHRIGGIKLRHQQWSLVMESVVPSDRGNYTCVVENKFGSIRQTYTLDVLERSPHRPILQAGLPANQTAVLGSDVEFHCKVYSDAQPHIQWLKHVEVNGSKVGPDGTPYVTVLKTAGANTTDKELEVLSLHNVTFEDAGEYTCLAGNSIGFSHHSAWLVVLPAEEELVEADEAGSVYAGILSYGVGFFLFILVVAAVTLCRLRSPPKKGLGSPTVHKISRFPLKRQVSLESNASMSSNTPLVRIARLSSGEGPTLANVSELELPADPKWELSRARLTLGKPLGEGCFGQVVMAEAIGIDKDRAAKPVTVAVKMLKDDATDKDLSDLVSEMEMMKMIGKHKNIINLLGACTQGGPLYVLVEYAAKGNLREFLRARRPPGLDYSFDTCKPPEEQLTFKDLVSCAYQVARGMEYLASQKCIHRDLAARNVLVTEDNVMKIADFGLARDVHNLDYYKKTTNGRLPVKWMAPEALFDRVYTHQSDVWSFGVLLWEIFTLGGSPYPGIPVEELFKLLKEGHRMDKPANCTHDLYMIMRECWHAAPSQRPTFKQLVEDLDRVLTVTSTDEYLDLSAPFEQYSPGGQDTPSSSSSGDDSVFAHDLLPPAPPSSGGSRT
No unit in the answer, only the number.

Need phosphorylation enrichment of VSSPKYGSNDE [TMCC2_Y473_D476N] , thanks.
0.619

TAPYNYSYIFK [RAB14_Y8] , same question.
1.21

HKDNNYISMWF [PAPOLG_Y432_V433I] , same question.
2.46

DFPGNYSGFDD [POLR1C_Y33_YF] , same question.
0.637

QRPGLYDRPGA [HNRNPH2_Y210_P209L] , same question.
0.773

LNEQHYGGLTG [PGAM4_Y92_R90Q] , same question.
0.972

QGGRRYMMIVD [GAA_Y438] , same question.
0.367

YLENYYDLEKD [MMP3_Y42_K45E] , same question.
5.26

IGSQRYKLGVR [RB1_Y446] , same question.
0.364

KERNQYGGVMV [MMP21_Y347_E349G] , same question.
0.475

RVAFQYGVTDL [MYBPC3_Y340_I336V] , same question.
0.842

QEALEYFMKQI [PIK3CA_Y1038_M1043I] , same question.
0.744

GKFFQYDTWNQ [IGF2_Y116_K120N] , same question.
0.639

ENQEIYQKAFD [KPNA1_Y493] , same question.
0.643

----------
molecular target: Jak2 (UniProt O60674); assay: phosphorylation enrichment, bacterial display (enrichment ratio); higher = better substrate or ligand; peptides without Tyr show the background
Sequence (O60674 whole entry, looked up): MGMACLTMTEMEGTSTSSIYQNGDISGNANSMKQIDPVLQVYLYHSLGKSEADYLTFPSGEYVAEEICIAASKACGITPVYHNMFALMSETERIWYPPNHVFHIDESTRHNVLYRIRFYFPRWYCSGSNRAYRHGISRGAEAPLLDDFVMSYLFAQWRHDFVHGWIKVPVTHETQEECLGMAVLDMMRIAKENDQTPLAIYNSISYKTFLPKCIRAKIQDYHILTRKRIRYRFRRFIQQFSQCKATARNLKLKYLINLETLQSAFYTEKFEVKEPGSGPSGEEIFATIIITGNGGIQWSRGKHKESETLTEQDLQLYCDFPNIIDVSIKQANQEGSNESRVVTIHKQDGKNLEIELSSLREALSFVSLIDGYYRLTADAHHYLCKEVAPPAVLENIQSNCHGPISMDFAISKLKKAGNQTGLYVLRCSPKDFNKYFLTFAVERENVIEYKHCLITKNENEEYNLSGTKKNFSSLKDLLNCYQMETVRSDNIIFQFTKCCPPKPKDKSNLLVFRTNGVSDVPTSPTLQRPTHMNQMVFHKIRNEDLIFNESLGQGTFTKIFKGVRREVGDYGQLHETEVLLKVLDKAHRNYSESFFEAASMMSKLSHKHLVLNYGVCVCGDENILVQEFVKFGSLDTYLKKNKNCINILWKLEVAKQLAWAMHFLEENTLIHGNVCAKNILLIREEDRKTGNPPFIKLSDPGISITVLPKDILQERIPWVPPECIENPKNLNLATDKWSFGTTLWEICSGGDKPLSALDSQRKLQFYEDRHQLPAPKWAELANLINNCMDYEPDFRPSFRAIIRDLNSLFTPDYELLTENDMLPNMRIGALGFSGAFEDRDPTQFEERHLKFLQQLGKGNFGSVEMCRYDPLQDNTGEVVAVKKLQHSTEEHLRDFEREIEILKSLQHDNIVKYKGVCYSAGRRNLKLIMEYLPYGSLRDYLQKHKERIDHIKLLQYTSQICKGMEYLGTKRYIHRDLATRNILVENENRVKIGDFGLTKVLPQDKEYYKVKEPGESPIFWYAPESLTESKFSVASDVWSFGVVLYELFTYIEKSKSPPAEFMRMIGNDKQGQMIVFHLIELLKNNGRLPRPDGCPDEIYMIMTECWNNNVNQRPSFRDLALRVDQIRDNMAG
I'd be grateful if you could share measured phosphorylation enrichment for these entries.
No unit in the answer, only the number.

Need phosphorylation enrichment of SNVEQYQAMVT [TPR_Y965] , thanks.
0.846

HLTNQFMQRVA [PABPC4_Y382_Y382F] , same question.
0.697

SSSPTYPDLPF [GLI3_Y168] , same question.
0.91

TVLWQYTGTRP [UGT1A1_Y337_R336Q] , same question.
1.01

SSNLYYRWLTA [CNGA3_Y169] , same question.
4.69

AAVDEYLEYRR [FAM221A_Y17] , same question.
1.21

WPLKWYAPECI [ZAP70_Y506] , same question.
1.03

LKLWDYRRGRC [WDR5B_Y239_S240R] , same question.
0.683

REGKIYEYNQV [ZNF665_Y162_H157R] , same question.
0.494

LTFHMYADPNI [SOS1_Y618_F623I_YF] , same question.
2.23

TENAGYYFRIS , same question.
1.71

RFLRGYRQHAF [HLA-A_Y137_D140H_YF] , same question.
0.933

KVKEQYQDVPM [PKP2_Y659] , same question.
0.632

RRFVFYFSFLL [PTEN_Y177_YF] , same question.
0.622

RSSPVYVGRVV [TGM2_Y219] , same question.
1.03

KDFNKYVAYIE [KDM4B_Y31] , same question.
0.603

MAQDIYRASFF [ALK_Y1278_R1275Q_YF] , same question.
0.711

SNYRAYATEPH [TNNI3_Y29] , same question.
0.435

GHPYAYDWISI [BEST1_Y227_L224P] , same question.
0.794

CKQGKYLNWDA [ATM_Y54_S49C] , same question.
0.782

DKMEAYNIDET [TEKT4_Y210] , same question.
1.04

GLRFGYGVLGG [KRTAP20-2_Y15_YF] , same question.
0.562

KMGNEYVTKGQ [MYH7_Y410_V406M] , same question.
0.418

PECEWYKNGVK [TTN_Y2112] , same question.
1.32

DYNPNYCFAGK [ALK_Y1096] , same question.
0.873

IDAVCYFRMEN [NPHS2_Y194_I192V_YF] , same question.
2.74

RALLNYIASKY [GSTA3_Y74_I71L] , same question.
0.8

SKEPFYVRCIK [MYO1D_Y586_YF] , same question.
0.921

ADCRYYTFPQM [GAMT_Y223_A224T] , same question.
4.44

NTQRPHFKGGG [TYROBP_Y111_Y111H_YF] , same question.
0.553

GPKFGYDEIDN [ACOX1_Y232] , same question.
0.765

HILRVYSGVLP [PCNX4_Y999_G1000S] , same question.
0.867

GIVEDYRPPVY [ACVRL1_Y421_F425V] , same question.
0.77

LSGFCYRLSDQ [PDCD6_Y124_G123C] , same question.
1.53

EDGFAYVPLKD [PRIM2_Y208] , same question.
1.18

YMRGMYFRMKD [PLA2G6_Y541] , same question.
1.16

LMIEEYLTKEP [BAG3_Y457_L462P] , same question.
2.78

NTFEKYWLFFQ [GATM_Y103_P105L_YF] , same question.
1.2

GRQGIYTENKR [GPR143_Y231_E235K] , same question.
0.527

IMICAYLLHRG [PTEN_Y138_V133I] , same question.
1.23

RGDCTYAPLLG [AR_Y269_M268T] , same question.
1.18

LLIMEYAKFGS [RET_Y806_V804M_YF] , same question.
2.11

MGCVNYGAFIN [GLB1_Y485_R482C_YF] , same question.
1.14

CPSLPYSPVSS [CAMKK2_Y128] , same question.
0.905

RVAFQYGVTDL [MYBPC3_Y340_I336V] , same question.
1.08

MHLRQYELLGG [GNAS_Y391] , same question.
0.634

EYHRLYEEYTR [PIK3R1_Y467_D464H] , same question.
0.978

SILTVYSKDNY [PANK2_Y400_A398T] , same question.
0.715

QRTMKYTTATE [MCCC1_Y41_G46E] , same question.
0.975

IMVFVYCRVFQ [ADRB2_Y219_S220C] , same question.
0.699

RGYRQDAYDGK [HLA-A_Y140] , same question.
0.859

SCTFTYLLGDR [ETHE1_Y38] , same question.
0.921

FGISGYLVDSV [MAP2K3_Y214] , same question.
0.97

PCLLRYLQLDF [ASB10_Y457_R453C] , same question.
1.51

NRLNDYIFSFD [RARS1_Y516] , same question.
0.977

KPLMPYMRYSR [SMARCE1_Y73] , same question.
0.626

PVQAASQKVVA [HBB_Y131_Y131S] , same question.
0.398

LEVETYRRLLD [KRT12_Y429_I426V] , same question.
0.749

----------
I'd be grateful if you could share measured phosphorylation enrichment for these entries.
target: EPHB2 (UniProt P29323); experiment: phosphorylation enrichment, bacterial display (enrichment ratio); higher = better substrate or ligand; peptides without Tyr show the background
Sequence (P29323 whole entry, looked up): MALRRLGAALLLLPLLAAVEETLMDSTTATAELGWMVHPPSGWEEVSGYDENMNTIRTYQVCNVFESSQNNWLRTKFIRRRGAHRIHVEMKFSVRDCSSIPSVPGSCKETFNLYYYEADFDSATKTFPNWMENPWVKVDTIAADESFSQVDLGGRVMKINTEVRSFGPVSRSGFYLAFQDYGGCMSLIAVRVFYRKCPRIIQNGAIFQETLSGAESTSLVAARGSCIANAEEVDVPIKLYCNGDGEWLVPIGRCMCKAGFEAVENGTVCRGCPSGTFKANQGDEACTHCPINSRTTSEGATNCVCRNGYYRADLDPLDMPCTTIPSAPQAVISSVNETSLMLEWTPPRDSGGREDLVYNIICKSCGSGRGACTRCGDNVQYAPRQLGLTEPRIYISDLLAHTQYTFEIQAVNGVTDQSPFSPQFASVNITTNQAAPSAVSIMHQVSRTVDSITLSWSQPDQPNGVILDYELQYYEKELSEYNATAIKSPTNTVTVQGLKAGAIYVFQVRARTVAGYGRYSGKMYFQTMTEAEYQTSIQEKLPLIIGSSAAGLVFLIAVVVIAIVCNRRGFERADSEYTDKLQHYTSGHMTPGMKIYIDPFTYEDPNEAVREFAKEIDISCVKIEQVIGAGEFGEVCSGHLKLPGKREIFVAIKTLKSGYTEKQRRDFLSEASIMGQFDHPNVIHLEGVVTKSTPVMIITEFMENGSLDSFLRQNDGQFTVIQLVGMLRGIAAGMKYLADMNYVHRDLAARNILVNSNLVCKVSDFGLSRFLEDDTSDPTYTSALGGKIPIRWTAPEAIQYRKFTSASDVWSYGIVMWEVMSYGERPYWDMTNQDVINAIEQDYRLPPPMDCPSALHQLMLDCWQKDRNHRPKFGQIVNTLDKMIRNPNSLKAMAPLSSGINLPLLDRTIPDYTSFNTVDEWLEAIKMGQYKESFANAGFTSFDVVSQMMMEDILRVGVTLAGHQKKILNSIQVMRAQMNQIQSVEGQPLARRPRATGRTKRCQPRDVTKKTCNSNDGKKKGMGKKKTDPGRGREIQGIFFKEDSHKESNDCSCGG
No unit in the answer, only the number.

Need phosphorylation enrichment of LIYTNYEAGKD [GSTP1_Y112] , thanks.
8.11

EDDIIYTQDFT [STK11_Y362] , same question.
0.647

HHIDFYKETTN [FGFR1_Y654_K656E_YF] , same question.
2.44

ETLLFYGFRRS [POR_Y564_C566Y_YF] , same question.
0.404

GLRFGYGVLGG [KRTAP20-2_Y15_YF] , same question.
0.488

VMSMNYRVGAL [BCHE_Y174_V170M] , same question.
0.592

KNILCYIQGGS [HYDIN_Y4610] , same question.
0.748

QFNIQYSSSAA [ERBB2IP_Y981_YF] , same question.
0.542

SMGMKYLEEKN [ZAP70_Y451] , same question.
0.463

RISRKYKKVRF [F8_Y442_G439S] , same question.
1.07

PDDPSYSLVDD [PSTPIP2_Y323_N322S] , same question.
0.8

FLGRNYLETLM [DUS3L_Y610_D609N_YF] , same question.
0.412

HKDNNYVSMWF [PAPOLG_Y432] , same question.
4.55

FEEDSYVERSQ [RET_Y905_K907E_YF] , same question.
0.621

----------
system: c-Src; experiment: phosphorylation enrichment, bacterial display (enrichment ratio); higher = better substrate or ligand; peptides without Tyr show the background
I'd be grateful if you could share measured phosphorylation enrichment for these entries.
No unit in the answer, only the number.

Need phosphorylation enrichment of RFLERYIFNRE [HLA-DPB1_Y57_YF] , thanks.
0.432

DVRQEYSGMIL [PLXND1_Y616_P617S] , same question.
0.477

KMGNEYVTKGQ [MYH7_Y410_V406M] , same question.
0.344

FRDALYKSMVD [PHEX_Y250_F252S_YF] , same question.
0.365

RGYRQDAYDGK [HLA-A_Y140] , same question.
0.526

FTAVGYHKHIT [NOMO1_Y1137] , same question.
0.312

RLNWIYFKDQT [RS1_Y165_YF] , same question.
0.855

NTYEKYLGEEY [TF_Y669] , same question.
1.03

SIIKDYFHRGT [GATM_Y203_A208T] , same question.
0.569

KGFRGYSFDDI [TMEM230_Y110_YF] , same question.
0.452
